- Tested Target: Parathyroid hormone/parathyroid hormone-related peptide receptor (Homo sapiens)
- Test Description: qHTS for PTHR1 Agonists: Optimization Screen against the NCGC LOPAC library (AID 1347079);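 further: GloSensor cAMP luminescence in HEK-293 GP2 cells expressing human PTHR1 with IBMX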
- Assay Setup: HEK293 GP2 PTHR1 GloSensor cAMP luminescence, 1 h; series mostly up to 57.1 µM
- From the text: The goal of the proposed studies is to discover new compounds that act as potent agonists on the parathyroid hormone receptor type-1 (PTHR1). […] We performed an optimization assay of the quantitative high-throughput screening (qHTS) for the parathyroid hormone receptor type-1 (PTHR1) against the NCGC LOPAC library collection of […] compounds using a unique HEK-293-derived cell line (GP2) that expresses the PTHR1 and a GloSensor cAMP reporter construct. […]
Calls of active or inactive are those of the source. The call rests on the fitted dose curve; in most records, active means well fitted activation curve with a large enough effect; inconclusive means small, poorly fitted or top-dose-only effect; inactive means no such curve, though single readings can be large or run the other way.
Measurement Type: outcome

INSERT INTO measurements (molecule, tested_target, meas_value) VALUES
  ('CC(C)(O)[C@@H]1C2OC(=O)[C@@H]1[C@]1(O)C[C@H]3O[C@]34C(=O)O[C@H]2[C@]14C (tested in a mixture with another compound)', 'Parathyroid hormone/parathyroid hormone-related peptide receptor (Homo sapiens)', 'inactive'),
  ('CCCn1c(=O)c2[nH]c(C3CCCC3)nc2n(CCCOC(=O)c2ccc(S(=O)(=O)F)cc2)c1=O', 'Parathyroid hormone/parathyroid hormone-related peptide receptor (Homo sapiens)', 'inactive'),
  ('CC(N)Cc1c[nH]c2ccc(O)cc12 (stereo unspecified)', 'Parathyroid hormone/parathyroid hormone-related peptide receptor (Homo sapiens)', 'inactive'),
  ('CO[C@H]1CC=C2CCN3CCC4=C(CC(=O)OC4)[C@]23C1', 'Parathyroid hormone/parathyroid hormone-related peptide receptor (Homo sapiens)', 'inactive'),
  ('C#CCN[C@H](C)Cc1ccccc1', 'Parathyroid hormone/parathyroid hormone-related peptide receptor (Homo sapiens)', 'inactive'),
  ('OC1CCCCC1N1CCC(c2ccccc2)CC1 (stereo unspecified)', 'Parathyroid hormone/parathyroid hormone-related peptide receptor (Homo sapiens)', 'inactive'),
  ('NC(=O)c1cc(N2CC2)c([N+](=O)[O-])cc1[N+](=O)[O-]', 'Parathyroid hormone/parathyroid hormone-related peptide receptor (Homo sapiens)', 'inactive'),
  ('CCCN(CCC)[C@@H]1CCc2cccc(O)c2C1', 'Parathyroid hormone/parathyroid hormone-related peptide receptor (Homo sapiens)', 'inactive'),
  ('COc1ccc2[nH]c3c(c2c1)CCNC3', 'Parathyroid hormone/parathyroid hormone-related peptide receptor (Homo sapiens)', 'inactive'),
  ('C=CCN1CCc2cccc3c2[C@H]1Cc1ccc(O)c(O)c1-3', 'Parathyroid hormone/parathyroid hormone-related peptide receptor (Homo sapiens)', 'inactive'),
  ('Cc1c2ccncc2c(C)c2c1[nH]c1ccccc12', 'Parathyroid hormone/parathyroid hormone-related peptide receptor (Homo sapiens)', 'inactive');

---

- Test Description: Nrf2 qHTS screen for inhibitors: Validation (AID 493153)
- Assay Setup: A549 ARE-Fluc reporter, 18-24 h; luciferase luminescence
Records with an inconclusive call do not appear. Activity calls are given as the source filed them. Calls come from the whole dose curve; as a rule, active = well fitted inhibition curve with a large enough effect in the main read-out, with a control signal flat (not every such curve was filed as active); inconclusive = small, poorly fitted or top-dose-only effect, or effect the other way, or a change in a side signal; inactive = no such curve, though single readings can be large or run the other way.
Classes used: active, inactive

INSERT INTO measurements (compound, discrete_label) VALUES
  ('C[N+]1(C)CCOC(O)(c2ccc(-c3ccc(C4(O)C[N+](C)(C)CCO4)cc3)cc2)C1 (stereo not drawn)', 'inactive'),
  ('CCCN(CCC)[C@@H]1CCc2cccc(O)c2C1', 'inactive'),
  ('CCCC[N+]1(C)C2CC(OC(=O)[C@H](CO)c3ccccc3)CC1C1OC12 (stereo partly drawn)', 'inactive'),
  ('C=CCN1CC[C@]23c4c5ccc(O)c4O[C@@H]2/C(=N/N=C2\CC[C@@]4(O)C6Cc7ccc(O)c8c7[C@@]4(CCN6CC=C)[C@@H]2O8)CC[C@@]3(O)C1C5', 'inactive'),
  ('C=CCN(C1=NCCN1)c1c(Cl)cccc1Cl', 'inactive'),
  ('O=S1(=O)N(CCN2CC=C(c3c[nH]c4cc(F)ccc34)CC2)c2cccc3c2N1CCC3', 'active'),
  ('O=C1CC[C@@]2(O)C3Cc4ccc(O)c5c4C2(CCN3CC2CC2)[C@H]1O5 (stereo partly drawn)', 'inactive'),
  ('CCN1C[C@@]2(COC)C3[C@@H](OC)C4[C@@H]1C3([C@@H]1C[C@]3(O)[C@H](OC(=O)c5ccccc5)[C@@H]1[C@]4(OC(C)=O)[C@@H](O)[C@@H]3OC)[C@H](OC)C[C@H]2O', 'inactive');

---

- Test system: ICS
- Test Description: qHTS profiling for inhibitors of Plasmodium falciparum proliferation (AID 504749); further: nearly all actives have a fitted effect of over 60% in size
- Assay Setup: P. falciparum in erythrocytes, SYBR Green DNA, 72 h; series mostly up to 28.7 µM
Records with an inconclusive call do not appear. The source made the active and inactive calls. Calls follow the shape of the dose curve; as a rule, active = well fitted inhibition curve with a large enough effect; inconclusive = small, poorly fitted or top-dose-only effect; inactive = flat fitted curve, though single readings scatter.
Classes used: True for active, False for inactive

INSERT INTO assay_data (molecule, discrete_label) VALUES
  ('FC(F)OC(F)(F)C(F)Cl (configuration not stated)', 'False'),
  ('CNC(C)C(O)c1ccc(O)cc1 (configuration not stated)', 'False'),
  ('CNC1(c2ccccc2Cl)CCCCC1=O (configuration not stated)', 'False'),
  ('COC1=CC=C2[C@H]3Cc4ccc(OC)c5c4[C@@]2(CCN3C)[C@H]1O5', 'False'),
  ('ClC(Cl)(Cl)Cl', 'False'),
  ('CCC1(c2ccccc2)C(=O)NC(=O)N(C)C1=O (configuration not stated)', 'True'),
  ('S=C(S)N1CCNCC1', 'False'),
  ('O=C(O)C(Cl)(Cl)Cl', 'False'),
  ('[O]=[Cr](=[O])([OH])[O][Cr](=[O])(=[O])[OH]', 'False'),
  ('Cc1sc2ccccc2c1CC1=NCCN1', 'False'),
  ('[N-]=[N+]=CC(=O)OCC(N)C(=O)O (configuration not stated)', 'False'),
  ('S=C=S', 'False'),
  ('O=C1CC[C@@]2(O)C3Cc4ccc(O)c5c4C2(CCN3CC2CC2)[C@H]1O5 (some centres not stated)', 'False'),
  ('C=CCN1CCC23c4c5ccc(O)c4O[C@H]2C(=O)CC[C@@]3(O)C1C5 (some centres not stated)', 'False'),
  ('CCCC(C)C1(CC)C(=O)NC(=O)NC1=O (configuration not stated)', 'False'),
  ('O=c1[nH]c(=O)n(Cl)c(=O)n1Cl', 'False'),
  ('CC(Cc1ccccc1)NC=O (configuration not stated)', 'False'),
  ('O[C@H]1[C@H]2[C@H](O)CCCN2C[C@H]1O', 'False'),
  ('CC(=O)OO', 'False'),
  ('C[N+]1(C)CCCCC1COC(=O)C(O)(c1ccccc1)c1ccccc1 (configuration not stated)', 'False'),
  ('C=CCC1(C(C)CCC)C(=O)N=C(S)NC1=O (configuration not stated)', 'False'),
  ('C=CCN1CC[C@]23c4c5ccc(O)c4O[C@H]2[C@@H](O)C=C[C@H]3[C@H]1C5', 'False'),
  ('ClC=C(Cl)Cl', 'False'),
  ('C=CCN(C1=NCCN1)c1c(Cl)cccc1Cl', 'False'),
  ('CC(=O)OC1CN2CCC1CC2 (configuration not stated)', 'False'),
  ('c1ccc2sc(SNC3CCCCC3)nc2c1', 'False'),
  ('ClCC1CO1 (configuration not stated)', 'False'),
  ('CCC1C(C)=NN=C(c2ccc(OC)c(OC)c2)c2cc(OC)c(OC)cc21 (configuration not stated)', 'True'),
  ('N#CC(C#N)=Cc1cc(O)c(O)c(O)c1', 'True'),
  ('C=CCN=C=S', 'False'),
  ('F/C(COc1ccc2c(c1)[nH]c1ccccc12)=C1/CN2CCC1CC2', 'True'),
  ('COC([CH2][Hg])CNC(=O)c1ccccc1OCC(=O)O (configuration not stated)', 'False'),
  ('O=C1CCO1', 'False'),
  ('CN1C2CCC1CC(OC(c1ccccc1)c1ccc(Cl)cc1)C2 (configuration not stated)', 'True'),
  ('Clc1ccccc1Cl', 'False'),
  ('O=[N+]([O-])C(Br)(CO)CO', 'False'),
  ('O=C1CN(O)C(c2ccccc2)=c2cc(Cl)ccc2=N1', 'False'),
  ('O=S(=O)(O)c1cc(O)ccc1O', 'False'),
  ('Clc1ccc(C2(Cn3cncn3)OCCO2)c(Cl)c1', 'False'),
  ('C[C@H]1CC[C@@H]2[C@@H](C)[C@H]3[C@H](C[C@H]4[C@@H]5CC=C6CC(O[C@@H]7O[C@H](CO)[C@H](O)[C@H](O[C@@H]8O[C@H](CO)[C@@H](O)[C@H](O)[C@H]8O)[C@H]7O[C@H]7O[C@@H](C)[C@H](O)[C@@H](O)[C@H]7O)CC[C@]6(C)[C@H]5CC[C@]34C)N2C1 (some centres not stated)', 'False'),
  ('O=C(CCl)c1ccc(Oc2ccc(C(=O)CCl)cc2)cc1', 'False'),
  ('O=P(O)(O)C(Cl)(Cl)P(=O)(O)O', 'False'),
  ('COc1ccc(OC)c(C(O)C(C)N)c1 (configuration not stated)', 'False'),
  ('NCC(O)c1cccc(O)c1 (configuration not stated)', 'False'),
  ('CCON=O', 'False'),
  ('CC(C)(O)C1C2OC(=O)C1C1(O)CC3OC34C(=O)OC2C14C (configuration not stated)', 'False'),
  ('c1ccc2cc(CC3=NCCN3)ccc2c1', 'False'),
  ('N#CC1(N2CCCCC2)CCCCC1', 'False'),
  ('CCOC(=O)c1ccccc1C(=O)OCC', 'False'),
  ('CC(N)Cc1ccc(O)cc1 (configuration not stated)', 'False'),
  ('ClC1C(Cl)C(Cl)C(Cl)C(Cl)C1Cl (configuration not stated)', 'False'),
  ('COc1ccc2c(c1OC)C(=O)OC2C1c2cc3c(cc2CCN1C)OCO3 (configuration not stated)', 'False'),
  ('O=C(OCCN1CCCCC1)C(O)(c1ccccc1)c1ccccc1', 'False'),
  ('O=Cc1ccco1', 'False'),
  ('O=CC=O', 'False'),
  ('CCCN1CCCC2Cc3[nH]ncc3CC21 (configuration not stated)', 'False'),
  ('c1csc(C2(N3CCCCC3)CCCCC2)c1', 'False');
